TARGET: pFGFR4 in Huh7 cells (Homo sapiens (Human), UniProt P22455)
Sequence (P22455 22-802): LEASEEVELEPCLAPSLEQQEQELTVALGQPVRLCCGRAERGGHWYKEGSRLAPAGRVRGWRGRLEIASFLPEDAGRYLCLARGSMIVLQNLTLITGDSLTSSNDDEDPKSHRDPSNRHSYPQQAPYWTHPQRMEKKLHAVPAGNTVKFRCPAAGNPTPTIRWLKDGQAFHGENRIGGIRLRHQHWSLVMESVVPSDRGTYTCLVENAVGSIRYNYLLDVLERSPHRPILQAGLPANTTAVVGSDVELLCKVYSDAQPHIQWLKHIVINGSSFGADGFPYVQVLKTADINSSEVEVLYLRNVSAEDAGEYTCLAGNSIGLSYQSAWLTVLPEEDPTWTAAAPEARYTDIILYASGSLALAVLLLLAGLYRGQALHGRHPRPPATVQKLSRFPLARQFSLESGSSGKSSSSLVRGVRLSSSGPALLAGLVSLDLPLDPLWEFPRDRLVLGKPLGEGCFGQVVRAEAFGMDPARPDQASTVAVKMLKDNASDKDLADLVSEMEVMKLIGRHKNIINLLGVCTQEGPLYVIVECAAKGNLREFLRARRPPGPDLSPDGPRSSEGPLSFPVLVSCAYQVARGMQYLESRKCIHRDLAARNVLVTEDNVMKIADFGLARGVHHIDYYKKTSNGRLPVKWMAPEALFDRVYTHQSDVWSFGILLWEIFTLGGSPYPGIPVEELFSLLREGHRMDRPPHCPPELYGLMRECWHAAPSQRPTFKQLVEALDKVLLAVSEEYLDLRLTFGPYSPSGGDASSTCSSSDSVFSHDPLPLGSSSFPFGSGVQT
PROTOCOL SUMMARY: FGFR4 signaling, Meso Scale assay (MSD), Method B, Huh7
pEC50: −log10 of the molar value.

{"MOLECULE": "C=CC(=O)NC1CCCCC1Nc1ncc2c(n1)N(CCF)C(=O)N(c1c(Cl)c(OC)cc(OC)c1Cl)C2 (racemic)", "pEC50": "6.30 to 7.00"}
{"MOLECULE": "C=CC(=O)Nc1cc(-c2nnnn2C)ccc1Nc1ncc2c(n1)N(C)C(=O)N(c1c(Cl)c(OC)cc(OC)c1Cl)C2", "pEC50": "> 7.00"}
{"MOLECULE": "C=CC(=O)Nc1ccccc1Nc1ncc2c(n1)N(Cc1cscn1)C(=O)N(c1cc(OC)cc(OC)c1)C2", "pEC50": "6.30 to 7.00"}
{"MOLECULE": "C=CC(=O)Nc1ccccc1Nc1ncc2c(n1)NC(=O)N(c1cc(OC)cc(OC)c1)C2", "pEC50": "< 6.00"}
{"MOLECULE": "C=CC(=O)NC1CN(c2ccn(C)n2)CC1Nc1ncc2c(n1)N(C)C(=O)N(c1c(Cl)c(OC)cc(OC)c1Cl)C2 (stereo not shown)", "pEC50": "> 7.00"}
{"MOLECULE": "C=CC(=O)Nc1ccccc1Nc1ncc2c(n1)N(CC(F)F)C(=O)N(c1cc(OC)cc(OC)c1)C2", "pEC50": "6.30 to 7.00"}
{"MOLECULE": "C=CC(=O)Nc1ccccc1Nc1ncc2cc(-c3c(Cl)c(OC)cc(OC)c3Cl)c(=O)n(C)c2n1", "pEC50": "> 7.00"}

* * *

TARGET: FGFR4-WT (Homo sapiens (Human), UniProt P22455)
Sequence (P22455 22-802): as above
PROTOCOL SUMMARY: Omnia assay for potency assessment against FGFR4 enzyme
Type: biochemical
TEST CONTEXT: method a: [FGFR4-WT]=10 nM (Invitrogen), [ATP]=300 uM, [Y10-Sox]=10 uM

{"COMPOUND": "C=CC(=O)Nc1cc(-c2cnn(C)c2)ccc1Nc1ncc2c(n1)N(C)C(=O)N(c1cc(OC)cc(OC)c1)C2", "IC50": "< 100 nM"}
{"COMPOUND": "C=CC(=O)N[C@H]1CCCC[C@H]1Nc1ncc2c(n1)N(C)C(=O)N(c1ccc(OC)cc1)C2", "IC50": "> 1000 nM"}
{"COMPOUND": "C=CC(=O)Nc1ccccc1Nc1ncc2c(n1)N(CC(F)F)C(=O)N(c1cc(OC)cc(OC)c1)C2", "IC50": "< 100 nM"}
{"COMPOUND": "C=CC(=O)Nc1ccccc1Nc1ncc2c(n1)N(CCF)C(=O)N(c1cc(OC)cc(OC)c1)C2", "IC50": "< 100 nM"}
{"COMPOUND": "C=CC(=O)Nc1ccccc1Nc1ncc2c(n1)N(Cc1ccn(C)n1)C(=O)N(c1c(Cl)c(OC)cc(OC)c1Cl)C2", "IC50": "< 100 nM"}
{"COMPOUND": "C=CC(=O)Nc1ccccc1Nc1ncc2c(n1)N(C)C(=O)N(c1c(F)c(OC)cc(OC)c1F)C2", "IC50": "< 100 nM"}
{"COMPOUND": "C=CC(=O)NC1COCC1Nc1ncc2c(n1)N(Cc1cnn(C)c1)C(=O)N(c1c(Cl)c(OC)cc(OC)c1Cl)C2 (stereo not shown)", "IC50": "< 100 nM"}
{"COMPOUND": "C=CC(=O)Nc1ccccc1Nc1ncc2c(n1)N(Cc1cccc(C#N)c1)C(=O)N(c1cc(OC)cc(OC)c1)C2", "IC50": "< 100 nM"}
{"COMPOUND": "C=CC(=O)Nc1cc(C)ccc1Nc1ncc2cc(-c3c(Cl)c(OC)cc(OC)c3Cl)c(=O)n(C)c2n1", "IC50": "< 100 nM"}
{"COMPOUND": "C=CC(=O)NC1CN(c2ccn(C)n2)CC1Nc1ncc2c(n1)N(C)C(=O)N(c1c(Cl)c(OC)cc(OC)c1Cl)C2 (stereo not shown)", "IC50": "< 100 nM"}
{"COMPOUND": "C=CC(=O)NC1CCCCC1Nc1ncc2c(n1)N(CC(F)F)C(=O)N(c1c(F)c(OC)cc(OC)c1F)C2 (stereo not shown)", "IC50": "101 to 500 nM"}
{"COMPOUND": "C=CC(=O)Nc1ccccc1Nc1ncc2c(n1)N(CC1CC1)C(=O)N(c1cc(OC)cc(OC)c1Cl)C2", "IC50": "< 100 nM"}
{"COMPOUND": "C=CC(=O)Nc1ccccc1Nc1ncc2c(n1)N(C1COC1)C(=O)N(c1cc(OC)cc(OC)c1)C2", "IC50": "< 100 nM"}
{"COMPOUND": "C=CC(=O)Nc1cc(F)ccc1Nc1ncc2cc(-c3c(Cl)c(OC)cc(OC)c3Cl)c(=O)n(C)c2n1", "IC50": "< 100 nM"}
{"COMPOUND": "C=CC(=O)Nc1ccccc1Nc1ncc2c(n1)N(C)C(=O)N(C1CCCCC1)C2", "IC50": "501 to 999 nM"}
{"COMPOUND": "C=CC(=O)Nc1ccccc1Nc1ncc2c(n1)N(CCC(O)CO)C(=O)N(c1cc(OC)cc(OC)c1)C2 (stereo not shown)", "IC50": "< 100 nM"}
{"COMPOUND": "C=CC(=O)Nc1ccc(C)cc1Nc1ncc2c(n1)N(C)C(=O)N(c1cc(OC)cc(OC)c1)C2", "IC50": "< 100 nM"}
{"COMPOUND": "C=CC(=O)Nc1cc(-c2nccs2)ccc1Nc1ncc2c(n1)N(C)C(=O)N(c1cc(OC)cc(OC)c1)C2", "IC50": "501 to 999 nM"}
{"COMPOUND": "C=CC(=O)Nc1ccccc1Nc1ncc2c(n1)N(C1CC1)C(=O)N(c1cc(OC)cc(OC)c1)C2", "IC50": "< 100 nM"}
{"COMPOUND": "C=CC(=O)N(C)C1COCC1Nc1ncc2c(n1)N(C)C(=O)N(c1c(Cl)c(OC)cc(OC)c1Cl)C2 (stereo not shown)", "IC50": "> 1000 nM"}
{"COMPOUND": "C=CC(=O)Nc1cc(N2CCOCC2)ccc1Nc1ncc2c(n1)N(C)C(=O)N(c1cc(OC)cc(OC)c1)C2", "IC50": "< 100 nM"}
{"COMPOUND": "C=CC(=O)N[C@@H]1COC[C@@H]1Nc1ncc2c(n1)N(C)C(=O)N(c1c(Cl)c(OC)cc(OC)c1Cl)C2", "IC50": "> 1000 nM"}
{"COMPOUND": "C=CC(=O)Nc1ccccc1Nc1ncc2c(n1)N(C)C(=O)N(c1cc(OC)cc(OC)c1)C2", "IC50": "< 100 nM"}
{"COMPOUND": "C=CC(=O)Nc1ccccc1Nc1ncc2c(n1)N(Cc1cccc(C(N)=O)c1)C(=O)N(c1cc(OC)cc(OC)c1)C2", "IC50": "< 100 nM"}
{"COMPOUND": "C=CS(=O)(=O)Nc1ccccc1Nc1ncc2c(n1)N(C)C(=O)N(c1cc(OC)cc(OC)c1)C2", "IC50": "< 100 nM"}
{"COMPOUND": "C=CCN1C(=O)N(c2cc(OC)cc(OC)c2)Cc2cnc(Nc3ccccc3NC(=O)C=C)nc21", "IC50": "< 100 nM"}
{"COMPOUND": "C=CC(=O)NC1COCC1Nc1ncc2c(n1)N(CC)C(=O)N(c1c(Cl)c(OC)cc(OC)c1Cl)C2 (stereo not shown)", "IC50": "< 100 nM"}
{"COMPOUND": "C=CC(=O)Nc1ccccc1Nc1ncc2c(n1)N(CC1CC1)C(=O)N(c1cc(OC)cc(OC)c1)C2", "IC50": "< 100 nM"}

Values were extracted from patent US9695132B2.
